# experimental system: revertant virus (AD169 CMV with the pentameric gH complex restored)
# method description: cell-based or functional assay
In this section we review reported Neutralization in MRC-5 cells EC50 values for a set of binders.
Entry rule: numbers only, all in µg/mL.

* 57.4 (antibody, V domains shown, rabbit hybridoma mAb (not the humanized version); also called clone 57.4; mAb 57.4) VH: QSLEESGGGLVKPGGTLTLTCTASGFSFSSVYDMSWVRQAPGKGLEWIASIVTGSRTTWYASWAKGRFTVSKTSSTTVTLQMTSLTAADTATYFCARGEYGHDGYVDGTMGLGLWGPGTLVTISS VL: ELDLTQTPASVEAAVGGTVAIKCQASQSIRRHLSWYQQKPGQRPKLLIYGASNLASGVSSRFKGSGSGTEFTLTISDLECADAATYYCQCTYGVGFSSTYGDAFGGGTELEIL | 100

### Prompt Using the record for 124.4 (antibody, V domains shown, rabbit hybridoma mAb; also called clone 124.4) VH: QSLEESGGRLVTPGTPLTLTCTVSGFSLSSCNMGWVRQAPGEGLEWIGYIAASGDAFYASWAKGRFTISKTSSTTVDLRITSPTTEDTAAYFCARGSYAAYNAWDLWGPGTLVTVSS VL: ELDMTQTASPVSAAVGGTVTINCQSSQSVYNKNYLSWYQQKPGQPPKLLIYGASTLPSGVPSRFKGSGSGTQFTLTISEVQCDDAATYYCQGYYSGYIYAFGGGTEVVVK , report its Neutralization in MRC-5 cells EC50.
### Response 0.08

These entries and their values trace back to patent US20160130327A1.
